Assign OD (450 nm) to each entry below.
Target: T1, human TIGIT-Fc (human, UniProt Q495A1 22-141, limits assumed)
T1 construct: not shown: Fc; not described
T1 sequence (looked up): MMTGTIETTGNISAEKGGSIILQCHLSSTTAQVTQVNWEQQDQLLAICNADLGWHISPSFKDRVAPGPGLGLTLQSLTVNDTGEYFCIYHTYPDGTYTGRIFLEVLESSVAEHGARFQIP
Test: CD155 competition ELISA, single point; also: test concentration or dose not given here
Value expressed in OD; do not type the unit.

Value lookup for OD (450 nm); key = TIGIT-SC43 (Fc fusion, VHH-Fc) VHH: EVQLVESGGGLVQPGGSLRLSCAASGFTFADYAMGWFRQAPGKEREMVAAIGWNSGTTEYADSVKGRFTISADNSKNTAYLQMNSLKPEDTAVYYCARDTNGWFFDFWGQGTLVTVSS
0.64

Value lookup for OD (450 nm); key = TIGIT-SC16 (Fc fusion, VHH-Fc) VHH: EVQLVESGGGLVQPGGSLRLSCAASGTTFSSAAMGWFRQAPGKEREWVASVLRGGYTWYADSVKGRFTISADNSKNTAYLQMNSLKPEDTAVYYCARDPVELGDYWGQGTLVTVSS
0.471

Which OD (450 nm) reading was recorded for the binder TIGIT-SC169 (Fc fusion, VHH-Fc) VHH: EVQLVESGGGLVQPGGSLRLSCAASGFTLNDYAMGWFRQAPGKERELVAWIARYDGSTLYADSVKGRFTISADNSKNTAYLQMNSLKPEDTAVYYCTTELRWELQQPDYWGQGTLVTVSS ?
0.679

What value of OD (450 nm) has been recorded for this entry: TIGIT-SC12 (Fc fusion, VHH-Fc) VHH: EVQLVESGGGLVQPGGSLRLSCAASGRTFSAYGMGWFRQAPGKEREFVAAITPSSRTTYYADSVKGRFTISADNSKNTAYLQMNSLKPEDTAVYYCAKDNWGEWLMPWWGQGTLVTVSS
0.622
